The values you see were collected from patent US8957219B2.

human endothelial lipase (EL) (Homo sapiens (Human)): reported pIC50 for various compounds.
Sequence (Q9Y5X9 21-500): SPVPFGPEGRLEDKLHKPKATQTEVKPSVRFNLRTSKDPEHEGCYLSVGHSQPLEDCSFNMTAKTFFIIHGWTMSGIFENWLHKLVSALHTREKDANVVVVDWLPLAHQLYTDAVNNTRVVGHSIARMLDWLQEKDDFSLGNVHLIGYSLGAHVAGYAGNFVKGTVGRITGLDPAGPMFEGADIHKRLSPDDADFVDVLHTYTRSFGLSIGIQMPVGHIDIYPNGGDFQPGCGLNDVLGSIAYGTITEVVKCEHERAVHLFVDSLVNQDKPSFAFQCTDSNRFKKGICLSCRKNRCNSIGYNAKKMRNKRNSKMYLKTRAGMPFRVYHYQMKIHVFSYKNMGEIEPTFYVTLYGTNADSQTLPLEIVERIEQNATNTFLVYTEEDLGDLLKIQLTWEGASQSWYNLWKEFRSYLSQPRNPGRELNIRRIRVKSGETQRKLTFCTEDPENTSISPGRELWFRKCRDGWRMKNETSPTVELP
Would you please state pIC50, meaning minus log10 of the concentration in mol/L, as a bare number?

Sample answers from the record:
> print(dat)
                                   compound  readout.value
1  COCC(O)CNC(=O)Cc1nc2ccc(-c3ccccc3)cc2s1 (stereo not shown)           5.68
2  COc1cc2nc(CC(=O)NCC(=O)NCC#N)sc2cc1-c1ccccc1           7.54
3  N#CCNC(=O)CNC(=O)Cc1nc2ccc(-c3ccccc3)cc2s1           6.96

# context switch: different compound, same pIC50
-- ask Recall the recorded pIC50 for `O=C(Cc1nc2ccc(-c3ccccc3)cc2s1)NCc1cccc(C(=O)O)c1` with human endothelial lipase (EL) (Homo sapiens (Human)) and state it.
-- reply 6.64
